TARGET UNDER TEST: rabbit reticulocyte 15-LO (Oryctolagus cuniculus, UniProt P12530)
Construct: Fifteen-lipoxygenase was obtained from phenylhydrazine-treated rabbits and purified per the method of Rapoport; from tissue; host or cells: reticulocytes of phenylhydrazine-treated rabbits
Sequence (P12530 whole entry): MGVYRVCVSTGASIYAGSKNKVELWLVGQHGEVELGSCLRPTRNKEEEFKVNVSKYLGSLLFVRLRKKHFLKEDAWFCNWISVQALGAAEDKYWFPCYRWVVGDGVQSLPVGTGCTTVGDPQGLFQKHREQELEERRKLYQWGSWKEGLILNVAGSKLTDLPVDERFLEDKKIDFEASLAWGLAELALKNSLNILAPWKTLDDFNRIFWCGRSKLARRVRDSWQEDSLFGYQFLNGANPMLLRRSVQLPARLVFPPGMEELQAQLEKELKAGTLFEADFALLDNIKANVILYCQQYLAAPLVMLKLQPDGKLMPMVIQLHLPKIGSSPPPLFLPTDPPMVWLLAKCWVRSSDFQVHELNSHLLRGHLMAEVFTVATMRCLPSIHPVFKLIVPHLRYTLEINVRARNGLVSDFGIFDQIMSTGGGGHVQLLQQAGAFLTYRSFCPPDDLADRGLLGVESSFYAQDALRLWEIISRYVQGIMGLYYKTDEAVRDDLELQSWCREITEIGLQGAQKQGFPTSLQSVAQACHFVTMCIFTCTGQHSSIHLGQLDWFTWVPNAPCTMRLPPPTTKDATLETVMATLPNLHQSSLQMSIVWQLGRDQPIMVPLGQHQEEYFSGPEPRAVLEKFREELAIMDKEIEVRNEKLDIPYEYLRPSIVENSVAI
EXPERIMENTAL PROTOCOL: Rabbit Reticulocyte 15-LO Assay (h15LO)
Type: biochemical
CONDITION PARAMETERS: Table 2; 2U rabbit reticulocyte 15-LO, 174 μM linoleic acid, 15 minutes at 4° C.
EXPERIMENTAL READOUT: log10 of IC50 (log10 of the value in nM)

MOLECULE | RESULT NUMBER
CCOC(=O)c1cccc(NC(=O)c2ccc(OC)c(N)c2)c1 [Example 148] | 2.79
COc1ccc(C(=O)Nc2ccccc2)cc1NC(=S)Nc1ccc(F)cc1 [Example 78] | 2.59
COC(=O)c1cccc(NC(=O)c2ccc(OC)c(N)c2)c1 [Example 149] | 2.52
COc1ccc(NC(=S)Nc2cc(C(=O)Nc3ccccc3)ccc2OC)cc1 [Example 83] | 1.91
COc1ccc(C(=O)Nc2ccccc2)cc1Nc1cccc([N+](=O)[O-])c1 [Example 33] | 1.08
COc1ccc(C(=O)Nc2ccccc2)cc1NC(=S)Nc1ccc(Cl)c(Cl)c1 [Example 85] | 1.30
COc1ccc(C(=O)Nc2ccccc2)cc1Nc1cc(C)cc(C)c1 [Example 36] | 1.04
COc1ccc(C(=O)Nc2ccc(F)c(F)c2)cc1NS(=O)(=O)c1cccc([N+](=O)[O-])c1 [Example 180] | 1.56
COc1ccc(C(=O)Nc2ccccc2)cc1NC(=S)Nc1cccc(C(F)(F)F)c1 [Example 84] | 1.30
COc1ccc(C(=O)Nc2ccccc2)cc1NC(=S)Nc1cc(C(F)(F)F)cc(C(F)(F)F)c1 [Example 89] | 1.54
COc1ccc(C(=O)Nc2ccc(F)c(F)c2)cc1NC(=S)Nc1cccc(C(=O)O)c1 [Example 162] | 1.74
COc1ccc(C(=O)Nc2ccc(Cl)c(Cl)c2)cc1NC(=S)Nc1ccc(S(N)(=O)=O)cc1 [Example 105] | 1.15
COc1ccc(C(=O)Nc2ccc(F)cc2)cc1Nc1ccccc1 [Example 39] | 1.70
CCS(=O)(=O)Nc1cc(C(=O)Nc2ccccc2)ccc1OC [Example 134] | 2.14
COc1ccc(C(=O)Nc2ccccc2)cc1NCc1cccc(Cl)c1 [Example 231] | 2.35
CCc1ccc(C(=O)Nc2ccc(F)c(F)c2)cc1NC(=S)Nc1cccc(C(F)(F)F)c1 [Example 111] | 1.90
COc1ccc(C(=O)Nc2ccccc2)cc1NC(=S)Nc1ccccc1C [Example 98] | 3.00
COc1ccc(C(=O)Nc2ccc(C)cc2)cc1NC(=S)Nc1cc(Cl)cc(Cl)c1 [Example 94] | 1.62
